# Target of assay: T1, COVID S1 RBD Fc fusion (Antigen 1) (SARS-CoV-2, UniProt P0DTC2 319-541)
# T1 construct: domain: RBD
# Procedure text: phage ELISA
# label = Fulfilled if specificity ELISA, percent binding relative to Acro S1 < 80% else Not fulfilled

Lab log: compare recorded specificity ELISA, percent binding relative to Acro S1 with 80%; is it strictly lower for SARS-CoV-2 variant 1-37 (antibody, V domains shown) VH: EVQLLESGGGLVQPGGSLRLSCAASGFTFTSYAMNWVRQAPGKGLEWVTAISGSGGSTFYADSVKGRFTISRDNSKNTLYLQMNSLRAEDTAVYYCTRPPYGDYGDYWGQGTLVTVSS VL: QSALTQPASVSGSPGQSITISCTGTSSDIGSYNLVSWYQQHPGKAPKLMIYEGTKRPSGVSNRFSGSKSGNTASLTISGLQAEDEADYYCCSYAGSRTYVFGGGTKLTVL ?
Fulfilled

Lab log: compare recorded specificity ELISA, percent binding relative to Acro S1 with 80%; is it strictly lower for SARS-CoV-2 variant 1-42 (antibody, V domains shown) VH: EVQLLESGGGLVQPGGSLRLSCAASGVTFSSYAMSWVRQAPGKGLEWVSAITGSGGSTYYADSVKGRFTISRDNSKNTLYLQMNSLRAEDTAVYYCAKHGSGTIFGVVIAKYYFDYWGQGTLVTVSS VL: QSALTQPASVSGSPGQSITISCTGTSSDVGRYNLVSWYQQHPGKAPKLMIYEGGKRPSGVSNRFSGSKSGNTASLTISGLQAEDEADYYCCSYASSSTLVFGGGTKLTVL ?
Not fulfilled

Lab log: compare recorded specificity ELISA, percent binding relative to Acro S1 with 80%; is it strictly lower for SARS-CoV-2 variant 1-26 (antibody, V domains shown) VH: EVQLLESGGGLVQPGGSLRLSCAASGFTFSSYAISWVRQAPGKGLEWVSAISGSGYSTYYADSVKGRFTISRDNSKNTLYLQMNSLRAEDTAVYYCARGAPDSSGYYFQGEVYFDYWGQGTLVTVSS VL: QSALTQPASVSGSPGQSITISCTGTSSDVGGYNLVSWYQQHPGKAPKLMIYEGTKRPSGVSNRFSGSKSGNTASLTISGLQAEDEADYYCCSFVRSSAHVVFGGGTKLTVL ?
Fulfilled

Lab log: compare recorded specificity ELISA, percent binding relative to Acro S1 with 80%; is it strictly lower for SARS-CoV-2 variant 1-8 (antibody, V domains shown) VH: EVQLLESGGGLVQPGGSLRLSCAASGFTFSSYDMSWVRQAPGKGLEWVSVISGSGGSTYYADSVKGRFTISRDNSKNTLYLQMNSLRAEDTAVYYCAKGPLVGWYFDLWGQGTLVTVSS VL: QSALTQPASVSGSPGQSITISCTGTSNDVGSYNLVSWYQQHPGKAPKLMIYEGSKRPSGVSNRFSGSKSGNTASLTISGLQAEDEADYYCCSYAGSRYVVFGGGTKLTVL ?
Not fulfilled

Lab log: compare recorded specificity ELISA, percent binding relative to Acro S1 with 80%; is it strictly lower for SARS-CoV-2 variant 1-47 (antibody, V domains shown) VH: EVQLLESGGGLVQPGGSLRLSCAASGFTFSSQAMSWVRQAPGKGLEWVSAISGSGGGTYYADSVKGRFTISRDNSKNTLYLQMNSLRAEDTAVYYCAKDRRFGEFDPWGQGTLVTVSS VL: QSALTQPASVSGSPGQSITISCTGTSSGVGSYNLVSWYQQHPGKAPKLMIYEGIKRPSGVSNRFSGSKSGNTASLTISGLQAEDEADYYCCSYAGSSSFVVFGGGTKLTVL ?
Fulfilled

Lab log: compare recorded specificity ELISA, percent binding relative to Acro S1 with 80%; is it strictly lower for SARS-CoV-2 variant 1-9 (antibody, V domains shown) VH: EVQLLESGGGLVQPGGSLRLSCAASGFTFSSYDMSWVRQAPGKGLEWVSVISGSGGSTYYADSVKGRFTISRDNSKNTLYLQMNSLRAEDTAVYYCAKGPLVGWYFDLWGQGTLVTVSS VL: QSALTQPASVSGSPGQSITISCTGTSSDVGDYNLVSWYQQHPGKAPKLMIYEGSNRPSGVSNRFSGSKSGNTASLTISGLQAEDEADYYCCSYAGSSSFVVFGGGTKLTVL ?
Not fulfilled

Lab log: compare recorded specificity ELISA, percent binding relative to Acro S1 with 80%; is it strictly lower for SARS-CoV-2 variant 1-10 (antibody, V domains shown) VH: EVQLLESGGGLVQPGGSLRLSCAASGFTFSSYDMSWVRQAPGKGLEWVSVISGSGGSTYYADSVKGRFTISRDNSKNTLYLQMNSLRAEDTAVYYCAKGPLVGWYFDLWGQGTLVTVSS VL: QSALTQPASVSGSPGQSITISCTGTSSNVGSYNLVSWYQQHPGKAPKLMIYEGTKRPSGVSNRFSGSKSGNTASLTISGLQAEDEADYYCCSYAGSSSFVVFGGGTKLTVL ?
Not fulfilled

Lab log: compare recorded specificity ELISA, percent binding relative to Acro S1 with 80%; is it strictly lower for SARS-CoV-2 variant 1-21 (antibody, V domains shown) VH: EVQLLESGGGLVQPGGSLRLSCAASGFTFSSYTMSWVRQAPGKGLEWVSIISGSGGSTYYADSVKGRFTISRDNSKNTLYLQMNSLRAEDTAVYYCAREGYRDYLWYFDLWGQGTLVTVSS VL: QSALTQPASVSGSPGQSITISCTGTSSDVGSNNLVSWYQQHPGKAPKLMIYEGNKRPSGVSNRFSGSKSGNTASLTISGLQAEDEADYYCCSYAGSVVFGGGTKLTVL ?
Fulfilled

Lab log: compare recorded specificity ELISA, percent binding relative to Acro S1 with 80%; is it strictly lower for SARS-CoV-2 variant 1-24 (antibody, V domains shown) VH: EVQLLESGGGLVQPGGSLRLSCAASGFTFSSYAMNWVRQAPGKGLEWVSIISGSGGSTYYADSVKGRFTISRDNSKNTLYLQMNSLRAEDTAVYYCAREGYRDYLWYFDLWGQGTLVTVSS VL: QSALTQPASVSGSPGQSITISCTGTSSDVGYYNLVSWYQQHPGKAPKLMIYEGNKRPSGVSNRFSGSKSGNTASLTISGLQAEDEADYYCCSYAGGSVVFGGGTKLTVL ?
Not fulfilled
